- target.of.assay: Serine/threonine-protein kinase Chk1 (Homo sapiens) (UniProt O14757)
- test: Inhibition of CHK1 (unknown origin) at 10 uM using Cdc25 peptide as substrate preincubated for 30 mins followed by substrate addition and measured after 60 mins by ADP-Glo kinase assay
measurement.kind: inhibition (%)
Give just the number in %; leave the unit off.

What value of inhibition has been reported for the following compound? `Fc1ccc(Nc2nc(NC3CCOCC3)c3nc[nH]c3n2)cc1` 37.2

Follow-up item: `Fc1ccc(Nc2nc(N3CCOCC3)c3nc[nH]c3n2)cc1` 89.9

Same thing, different compound: `COc1cccc(Nc2nc(N3CCOCC3)c3nc[nH]c3n2)c1` 84.9

What do you get for `COc1ccc(Nc2nc(N3CCOCC3)c3nc[nH]c3n2)cc1` ? 51

Would you kindly repeat that for `c1ccc2ncc(Nc3nc(N4CCOCC4)c4nc[nH]c4n3)cc2c1` ? 63.1

# iterate: `COc1cc(Nc2nc(N3CCOCC3)c3nc[nH]c3n2)cc(OC)c1OC` 35.8

Also `NC(=O)c1ccc(Nc2nc(N3CCOCC3)c3nc[nH]c3n2)cn1` ? 80.3

For `c1ccc(Nc2nc(N3CCOCC3)c3nc[nH]c3n2)cc1` then? 82.4

Next record, please: `COc1ccccc1Nc1nc(N2CCOCC2)c2nc[nH]c2n1` 3.8

Entry to check: `O=C(Nc1cccc(Nc2nc(N3CCOCC3)c3nc[nH]c3n2)c1)C(F)(F)F` 50

Subsequent entry: `c1ccc(Nc2nc(N3CCOCC3)c3cc[nH]c3n2)cc1` 44.5

Same question, `COc1cc(Nc2nc(N3CCOCC3)c3cc[nH]c3n2)cc(OC)c1OC` this time 26.9

Item: `Clc1cccc(Nc2nc(N3CCOCC3)c3nc[nH]c3n2)c1` 77.3

How about this compound: `c1cncc(Nc2nc(N3CCOCC3)c3nc[nH]c3n2)c1` 82.2

How about this compound: `COc1ccc(Nc2nc(N3CCOCC3)c3cc[nH]c3n2)cc1` 16.7

What do we get for `FC(F)(F)Oc1cccc(Nc2nc(N3CCOCC3)c3nc[nH]c3n2)c1` ? 31.6

How about `FC(F)(F)c1cccc(Nc2nc(N3CCOCC3)c3nc[nH]c3n2)c1` ? 61.3

Same for `c1ccc(Nc2nc(NC3CCOCC3)c3nc[nH]c3n2)cc1` 61.5

Next compound: `c1cnc(Nc2nc(N3CCOCC3)c3nc[nH]c3n2)cn1` 38.2

Next up: `Fc1cccc(Nc2nc(N3CCOCC3)c3nc[nH]c3n2)c1` 92

Could you do the same for `Cc1cccc(Nc2nc(N3CCOCC3)c3nc[nH]c3n2)c1` , please? 85.2

* * *

- target.of.assay: Serine/threonine-protein kinase Chk1 (Homo sapiens, UniProt O14757)
- Sequence (O14757 whole entry): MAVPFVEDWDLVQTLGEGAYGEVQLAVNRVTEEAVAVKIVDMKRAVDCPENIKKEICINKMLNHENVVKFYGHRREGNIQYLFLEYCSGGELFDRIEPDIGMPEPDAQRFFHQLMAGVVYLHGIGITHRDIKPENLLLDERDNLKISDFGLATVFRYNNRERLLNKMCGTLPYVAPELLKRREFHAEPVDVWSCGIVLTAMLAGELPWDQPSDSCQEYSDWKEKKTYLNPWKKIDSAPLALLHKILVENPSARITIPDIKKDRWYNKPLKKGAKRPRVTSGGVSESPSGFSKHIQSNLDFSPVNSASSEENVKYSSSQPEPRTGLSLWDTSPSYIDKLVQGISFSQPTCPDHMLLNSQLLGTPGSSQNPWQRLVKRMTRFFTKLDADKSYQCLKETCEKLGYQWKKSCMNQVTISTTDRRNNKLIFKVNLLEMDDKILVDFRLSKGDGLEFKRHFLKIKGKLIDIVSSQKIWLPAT
- test: Inhibition of CHK1 (unknown origin) using Cdc25 peptide as substrate preincubated for 30 mins followed by substrate addition and measured after 60 mins by ADP-Glo kinase assay
Kindly state pIC50 for each of the entries shown.
Reminder that pIC50 is minus the log10 of a molar concentration.

What value of pIC50 has been reported for the following compound? `c1cncc(Nc2nc(N3CCOCC3)c3nc[nH]c3n2)c1` 5.09

What about `Clc1cccc(Nc2nc(N3CCOCC3)c3nc[nH]c3n2)c1` ? 5.55

What about `c1ccc(Nc2nc(N3CCOCC3)c3nc[nH]c3n2)cc1` ? 5.59

What would you report for `Fc1ccc(Nc2nc(N3CCOCC3)c3nc[nH]c3n2)cc1` ? 6.16

Now the same for `COc1cccc(Nc2nc(N3CCOCC3)c3nc[nH]c3n2)c1` 5.44

Try this compound next: `NC(=O)c1ccc(Nc2nc(N3CCOCC3)c3nc[nH]c3n2)cn1` 5.01

What do we get for `Fc1cccc(Nc2nc(N3CCOCC3)c3nc[nH]c3n2)c1` ? 5.44

What about this compound? `Cc1cccc(Nc2nc(N3CCOCC3)c3nc[nH]c3n2)c1` 5.90

Where do the numbers come from? From ChEMBL document CHEMBL4152229.
